Sourced from patent US4465851A

This document collects IC50 values reported for Urokinase (Homo sapiens, UniProt P00749).
Counter-ions that a name gives are not always drawn.
Outcome measure: IC50 (µM)

A selection of reference data follows.
[
  {
    "Compound": "N=C(N)NC[C@H]1CC[C@H](C(=O)Oc2ccc([N+](=O)[O-])cc2)CC1 [Compound 15, hydrochloride]",
    "Unit text": "µM",
    "Data value": 31
  },
  {
    "Compound": "N#Cc1ccccc1OC(=O)[C@H]1CC[C@H](CNC(=N)N)CC1 [Compound 21, hydrochloride]",
    "Unit text": "µM",
    "Data value": 110
  },
  {
    "Compound": "CC(C)(C)c1ccc(OC(=O)[C@H]2CC[C@H](CNC(=N)N)CC2)cc1 [Compound 2, hydrochloride]",
    "Unit text": "µM",
    "Data value": 36
  },
  {
    "Compound": "N=C(N)NC[C@H]1CC[C@H](C(=O)Oc2ccccc2Cl)CC1 [Compound 5, hydrochloride]",
    "Unit text": "µM",
    "Data value": 160
  }
]

a. Cc1ccc(OC(=O)[C@H]2CC[C@H](CNC(=N)N)CC2)cc1 [Compound 3, hydrochloride]
b. N=C(N)NC[C@H]1CC[C@H](C(=O)Oc2ccc3ccc(=O)oc3c2)CC1 [Compound 24, hydrochloride]
// task: argmin of IC50 over [ a , b ] Identify your selection by its label.
b
